# method: Selectivity index, ratio of EC50 for mouse NIH/3T3 cells to EC50 for human HT-29 cells
# conditions: NIH/3T3 cells versus HT-29 cells
# Lookup of reported selectivity ratio keyed by entry
Hey, just send me the number, nothing else.

[
  {
    "smiles.entry": "COCCO[C@@H]1C[C@]2(C)[C@H]3CC=C4[C@@H]5CC(C)(C)CC[C@]5(C(=O)NCc5ccccc5)CC[C@@]4(C)[C@]3(C)CC[C@H]2C(C)(C)[C@H]1OCCOC",
    "measured.quantity": "selectivity ratio",
    "endpoint.value": 5
  }
]

# evaluate next
I'd like to know its selectivity ratio. The compound in question is COCO[C@@H]1C[C@]2(C)[C@H]3CC=C4[C@@H]5CC(C)(C)CC[C@]5(C(=O)NCc5ccccc5)CC[C@@]4(C)[C@]3(C)CC[C@H]2C(C)(C)[C@H]1O 5

----------
# Tested on: 518A2
# method: Cytotoxicity against human 518A2 cells assessed as reduction in cell proliferation after 96 hrs by sulforhodamine B assay
# Assay type: functional, cell-based
# conditions: 518A2, 96 h
measured.quantity: log10 of EC50 (log10 of the value in µM)
Scale: log10; quantity: EC50; unit before log: µM

[
  {
    "smiles.entry": "CC(=O)O[C@H]1C[C@]2(C)[C@H]3CC=C4[C@@H]5CC(C)(C)CC[C@]5(C(=O)Nc5ccccc5)CC[C@@]4(C)[C@]3(C)CC[C@H]2C(C)(C)[C@H]1OC(C)=O",
    "log10 of EC50": 0.30
  },
  {
    "smiles.entry": "CC(=O)O[C@H]1C[C@]2(C)[C@H]3CC=C4[C@@H]5CC(C)(C)CC[C@]5(C(=O)NCc5ccccc5)CC[C@@]4(C)[C@]3(C)CC[C@H]2C(C)(C)[C@H]1OC(C)=O",
    "log10 of EC50": -0.05
  },
  {
    "smiles.entry": "CO[C@@H]1C[C@]2(C)[C@H]3CC=C4[C@@H]5CC(C)(C)CC[C@]5(C(=O)NCc5ccccc5)CC[C@@]4(C)[C@]3(C)CC[C@H]2C(C)(C)[C@H]1OC",
    "log10 of EC50": 1.26
  },
  {
    "smiles.entry": "CC(=O)O[C@@H]1[C@H](OC(C)=O)C[C@]2(C)[C@H]3CC=C4[C@@H]5CC(C)(C)CC[C@]5(C(=O)NCc5ccccc5)CC[C@@]4(C)[C@]3(C)CC[C@H]2C1(C)C",
    "log10 of EC50": 0.76
  },
  {
    "smiles.entry": "CO[C@@H]1C[C@]2(C)[C@H]3CC=C4[C@@H]5CC(C)(C)CC[C@]5(C(=O)NCc5ccccc5)CC[C@@]4(C)[C@]3(C)CC[C@H]2C(C)(C)[C@H]1O",
    "log10 of EC50": 1.10
  }
]

Query log10 of EC50 on 518A2 for CC(=O)O[C@H]1C[C@]2(C)[C@H]3CC=C4[C@@H]5CC(C)(C)CC[C@]5(C(=O)O)CC[C@@]4(C)[C@]3(C)CC[C@H]2C(C)(C)[C@@H]1OC(C)=O 1.07

----------
# Tested on: 518A2
# method: Cytotoxicity against human 518A2 cells assessed as reduction in cell proliferation after 96 hrs by sulforhodamine B assay
# Format: functional, cell-based
# conditions: 518A2, 96 h
measured.quantity: EC50

Consider the reported EC50 for these compounds:
[
  {
    "smiles.entry": "CC1(C)CC[C@]2(C(=O)NCc3ccccc3)CC[C@]3(C)C(=CC[C@@H]4[C@@](C)(CC=O)[C@H](C(C)(C)C=O)CC[C@]43C)[C@@H]2C1",
    "endpoint.value": "6 µM"
  },
  {
    "smiles.entry": "CC(=O)O[C@H]1C[C@]2(C)[C@H]3CC=C4[C@@H]5[C@@H](C)[C@H](C)CC[C@]5(NC(=O)Oc5ccccc5)CC[C@@]4(C)[C@]3(C)CC[C@H]2C(C)(C)[C@H]1OC(C)=O",
    "endpoint.value": "3.1 µM"
  }
]

I'd like to know its EC50. The compound in question is COCO[C@@H]1C[C@]2(C)[C@H]3CC=C4[C@@H]5CC(C)(C)CC[C@]5(C(=O)NCc5ccccc5)CC[C@@]4(C)[C@]3(C)CC[C@H]2C(C)(C)[C@H]1O 3.2 µM

Here is the next compound: CC(=O)O[C@@H]1C[C@]2(C)[C@H]3CC=C4[C@@H]5CC(C)(C)CC[C@]5(C(=O)NCCc5ccccc5)CC[C@@]4(C)[C@]3(C)CC[C@H]2C(C)(C)[C@H]1OC(C)=O 1.2 µM

Here is the next compound: COCO[C@@H]1C[C@]2(C)[C@H]3CC=C4[C@@H]5CC(C)(C)CC[C@]5(C(=O)NCc5ccccc5)CC[C@@]4(C)[C@]3(C)CC[C@H]2C(C)(C)[C@H]1OCOC 22.1 µM

Here is the next compound: CC(=O)O[C@H]1C[C@]2(C)[C@H]3CC=C4[C@@H]5CC(C)(C)CC[C@]5(NC(=O)Oc5ccccc5)CC[C@@]4(C)[C@]3(C)CC[C@H]2C(C)(C)[C@H]1OC(C)=O 4.4 µM

Here is the next compound: CC(=O)O[C@@H]1[C@H](OC(C)=O)C[C@]2(C)[C@H]3CC=C4[C@@H]5CC(C)(C)CC[C@]5(C(=O)O)CC[C@@]4(C)[C@]3(C)CC[C@H]2C1(C)C 15.3 µM

Here is the next compound: CC1(C)CC[C@]2(C(=O)NCc3ccccc3)CC[C@]3(C)C(=CC[C@@H]4[C@@]5(C)C[C@H]6OC(C)(C)O[C@@H]6C(C)(C)[C@@H]5CC[C@]43C)[C@@H]2C1 29.8 µM

Here is the next compound: CC(=O)O[C@@H]1C[C@]2(C)[C@H]3CC=C4[C@@H]5CC(C)(C)CC[C@]5(C(=O)O)CC[C@@]4(C)[C@]3(C)CC[C@H]2C(C)(C)[C@H]1OC(C)=O 23.1 µM

Here is the next compound: COCCO[C@@H]1C[C@]2(C)[C@H]3CC=C4[C@@H]5CC(C)(C)CC[C@]5(C(=O)NCc5ccccc5)CC[C@@]4(C)[C@]3(C)CC[C@H]2C(C)(C)[C@H]1OCCOC 3.5 µM

Here is the next compound: CC(=O)O[C@H]1C[C@]2(C)[C@H]3CC=C4[C@@H]5[C@@H](C)[C@H](C)CC[C@]5(C(=O)Nc5ccccc5)CC[C@@]4(C)[C@]3(C)CC[C@H]2C(C)(C)[C@H]1OC(C)=O 3.4 µM

Here is the next compound: CC(=O)O[C@H]1C[C@]2(C)[C@H]3CC=C4[C@@H]5[C@@H](C)[C@H](C)CC[C@]5(NC(=O)Nc5ccccc5)CC[C@@]4(C)[C@]3(C)CC[C@H]2C(C)(C)[C@H]1OC(C)=O 2.5 µM

Here is the next compound: CC(=O)O[C@H]1C[C@]2(C)[C@H]3CC=C4[C@@H]5[C@@H](C)[C@H](C)CC[C@]5(NC(=O)c5ccccc5)CC[C@@]4(C)[C@]3(C)CC[C@H]2C(C)(C)[C@H]1OC(C)=O 7.9 µM

Here is the next compound: CC1(C)CC[C@]2(C(=O)NCc3ccccc3)CC[C@]3(C)C(=CC[C@@H]4[C@@]5(C)C[C@H]6OCO[C@@H]6C(C)(C)[C@@H]5CC[C@]43C)[C@@H]2C1 > 30 µM

Here is the next compound: CC(=O)O[C@@H]1C[C@]2(C)[C@H]3CC=C4[C@@H]5CC(C)(C)CC[C@]5(C(=O)NCc5ccccc5)CC[C@@]4(C)[C@]3(C)CC[C@H]2C(C)(C)[C@H]1OC(C)=O 1.5 µM

Here is the next compound: CC(=O)O[C@H]1C[C@]2(C)[C@H]3CC=C4[C@@H]5CC(C)(C)CC[C@]5(NC(=O)c5ccccc5)CC[C@@]4(C)[C@]3(C)CC[C@H]2C(C)(C)[C@H]1OC(C)=O 3.5 µM

Here is the next compound: CC(=O)O[C@H]1C[C@]2(C)[C@H]3CC=C4[C@@H]5CC(C)(C)CC[C@]5(C(=O)NCc5ccccc5)CC[C@@]4(C)[C@]3(C)CC[C@H]2C(C)(C)[C@@H]1OC(C)=O 2.3 µM

Here is the next compound: CC(=O)O[C@@H]1C[C@]2(C)[C@H]3CC=C4[C@@H]5CC(C)(C)CC[C@]5(C(=O)Nc5ccccc5)CC[C@@]4(C)[C@]3(C)CC[C@H]2C(C)(C)[C@H]1OC(C)=O 0.7 µM

Here is the next compound: CC1(C)CC[C@]2(C(=O)NCc3ccccc3)CC[C@]3(C)C(=CC[C@@H]4[C@@]5(C)C[C@@H]6O[C@@H]6C(C)(C)[C@@H]5CC[C@]43C)[C@@H]2C1 15.7 µM

Here is the next compound: CC(=O)O[C@H]1C[C@]2(C)[C@H]3CC=C4[C@@H]5CC(C)(C)CC[C@]5(NC(=O)Nc5ccccc5)CC[C@@]4(C)[C@]3(C)CC[C@H]2C(C)(C)[C@H]1OC(C)=O 1.2 µM
